Target: Motilin receptor (Oryctolagus cuniculus)
Sequence (A5A4K8 whole entry): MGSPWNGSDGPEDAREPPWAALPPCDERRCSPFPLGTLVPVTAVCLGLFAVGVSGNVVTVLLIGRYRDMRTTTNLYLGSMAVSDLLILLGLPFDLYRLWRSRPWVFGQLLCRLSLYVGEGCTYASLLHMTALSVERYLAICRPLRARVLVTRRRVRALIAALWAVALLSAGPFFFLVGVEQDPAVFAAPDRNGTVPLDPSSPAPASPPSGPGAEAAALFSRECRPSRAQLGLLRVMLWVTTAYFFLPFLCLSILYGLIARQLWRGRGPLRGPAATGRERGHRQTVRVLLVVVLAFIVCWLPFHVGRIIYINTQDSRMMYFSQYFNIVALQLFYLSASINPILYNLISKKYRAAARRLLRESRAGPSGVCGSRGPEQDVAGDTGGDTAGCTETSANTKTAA
Assay: Concentration required for in vitro motilin receptor binding, expressed as negative logarithm of IC50
measured-property: IC50 (nM)
# output: bare number, implied unit nM

| compound | measured-property | result-units | readout-number |
| --- | --- | --- | --- |
| CCC1OC(=O)C(C)C(O[C@H]2C[C@@](C)(OC)[C@@H](O)C(C)O2)C(C)[C@@H](OC2OC(C)CC(N(C)C)[C@H]2O)[C@@](C)(O)C[C@@H](C)C(=O)[C@H](C)[C@@H](O)[C@]1(C)O (some centres undefined) | IC50 | nM | 43.7 |

What does the data say about its IC50? Entry: CCC1OC(=O)C(C)C(O[C@H]2C[C@@](C)(OC)[C@@H](O)C(C)O2)C(C)[C@@H](OC2OC(C)CC(N(C)CC)[C@H]2O)[C@]2(C)CC(C)=C(O2)[C@H](C)C(=O)[C@]1(C)OC (some centres undefined)
3.8

Moving on to the next compound: CCC1OC(=O)C(C)C(O[C@H]2C[C@@](C)(OC)[C@@H](O)C(C)O2)C(C)[C@@H](OC2OC(C)CC(N(C)CC)[C@H]2O)[C@]2(C)CC(C)=C(O2)[C@H](C)[C@@H](O)[C@]1(C)O (some centres undefined)
3.16

Moving on to the next compound: CCC1OC(=O)C(C)C(O[C@H]2C[C@@](C)(OC)[C@@H](O)C(C)O2)C(C)[C@@H](OC2OC(C)CC(N(C)C(C)C)[C@H]2O)[C@]2(C)CC(C)=C(O2)[C@H](C)C(=O)[C@]1(C)OC (some centres undefined)
6.03
